- protocol.notes: recombinant UMI read abundance after kanamycin selection (control-corrected) (log10(CPM+1)); higher = more efficient recombination; extreme values may be limits of the assay; sequences stand for … in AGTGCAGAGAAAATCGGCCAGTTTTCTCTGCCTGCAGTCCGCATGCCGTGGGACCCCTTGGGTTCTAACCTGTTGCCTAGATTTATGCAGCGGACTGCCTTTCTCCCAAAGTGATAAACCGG…AGGTTGGTTTCACT; site = the 11-nt donor
property: recombinant UMI read abundance (log10)

[[record]]
polymer_sequence = "GATTGGACATGGACCGGTTTTCCCGGTAATCCGTATTTGAC (site GAGTGGACTGT)"
observed = 0

[[record]]
polymer_sequence = "ATTAGTGCATGGACCGGTTTTCCCGGTAATCCGTATTTGGT (site AGTAGTGCTAC)"
observed = 0.243

[[record]]
polymer_sequence = "TCAGAGTCATGGACCGGTTTTCCCGGTAATCCGTATTTGCG (site TCAGAGACTCG)"
observed = 0.877

[[record]]
polymer_sequence = "CCATAGCCATGGACCGGTTTTCCCGGTAATCCGTATTTGCC (site CCTTAGCCTGG)"
observed = 0

[[record]]
polymer_sequence = "CCTAAAACATGGACCGGTTTTCCCGGTAATCCGTATTTGAT (site CCTAAACCTAT)"
observed = 0.00551

[[record]]
polymer_sequence = "GTTAACTCATGGACCGGTTTTCCCGGTAATCCGTATTTGAA (site GTTAACTCTTT)"
observed = 1.85

[[record]]
polymer_sequence = "AAGAAGACATGGACCGGTTTTCCCGGTAATCCGTATTTGCA (site AGGAAGACTTG)"
observed = 2.2

[[record]]
polymer_sequence = "CGGACACCATGGACCGGTTTTCCCGGTAATCCGTATTTGCT (site CGGACAGCTAG)"
observed = 0.00902

[[record]]
polymer_sequence = "CCTTGTCCATGGACCGGTTTTCCCGGTAATCCGTATTTGCG (site CCTTGTCCTCG)"
observed = 0.00291


---

- protocol.notes: recombinant UMI read abundance after kanamycin selection (control-corrected) (log10(CPM+1)); higher = more efficient recombination; extreme values may be limits of the assay; sequences stand for … in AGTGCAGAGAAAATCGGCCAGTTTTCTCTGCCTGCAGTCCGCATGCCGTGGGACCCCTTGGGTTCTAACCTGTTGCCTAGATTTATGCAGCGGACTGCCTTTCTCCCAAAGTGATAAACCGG…AGGTTGGTTTCACT; site = the 11-nt donor
property: recombinant UMI read abundance (log10)

[[record]]
polymer_sequence = "GTAGGTACATGGACCGGTTTTCCCGGTAATCCGTATTTGTC (site GTAGGTACTGC)"
property = "recombinant UMI read abundance (log10)"
observed = 0

[[record]]
polymer_sequence = "CCGTTTACATGGACCGGTTTTCCCGGTAATCCGTATTTGCT (site CCGTTTACTAA)"
property = "recombinant UMI read abundance (log10)"
observed = 0

[[record]]
polymer_sequence = "GATTCGACATGGACCGGTTTTCCCGGTAATCCGTATTTGAC (site GATTTGACTGT)"
property = "recombinant UMI read abundance (log10)"
observed = 0

[[record]]
polymer_sequence = "TGTACAACATGGACCGGTTTTCCCGGTAATCCGTATTTGAC (site TGTACAGCTGT)"
property = "recombinant UMI read abundance (log10)"
observed = 0

[[record]]
polymer_sequence = "CTACTCACATGGACCGGTTTTCCCGGTAATCCGTATTTGGA (site CTACTAACTTC)"
property = "recombinant UMI read abundance (log10)"
observed = 0.63


---

- protocol.notes: recombinant barcode read abundance after kanamycin selection (control-corrected) (log10(CPM+1)); higher = more efficient recombination; sequences stand for … in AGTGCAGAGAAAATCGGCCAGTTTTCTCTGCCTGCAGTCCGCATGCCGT…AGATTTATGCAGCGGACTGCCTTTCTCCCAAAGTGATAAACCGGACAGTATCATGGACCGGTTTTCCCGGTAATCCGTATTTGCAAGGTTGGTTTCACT; site = the 11-nt target
recombinant barcode read abundance (log10): recorded values
property: recombinant barcode read abundance (log10)

[[record]]
polymer_sequence = "CAGATCCCTTGGGTTCTAACCTGTTGCCT (site CCGATCCCTAG)"
observed = 0.0889

[[record]]
polymer_sequence = "GTACGTCCTTGGGTTCTAACCTGTTGCAT (site GTACGTCCTAG)"
observed = 0.52

[[record]]
polymer_sequence = "GTCAACCCTTGGGTTCTAACCTGTTGCTG (site GTCAATCCTCA)"
observed = 0.145

[[record]]
polymer_sequence = "GGCATGTCTTGGGTTCTAACCTGTTGCCT (site GGCATGTCTAG)"
observed = 1.15

[[record]]
polymer_sequence = "ATAGGTTCTTGGGTTCTAACCTGTTGCCT (site AAAGGTTCTAG)"
observed = 0.0456

[[record]]
polymer_sequence = "CAGAATACTTGGGTTCTAACCTGTTGCGT (site CAAAATTCTAC)"
observed = 0.215

[[record]]
polymer_sequence = "CGTGACCCTTGGGTTCTAACCTGTTGCGG (site GTGAGAACTTG)"
observed = 0.072

[[record]]
polymer_sequence = "TTACGAGCTTGGGTTCTAACCTGTTGCCT (site TTACGAGCTAG)"
observed = 1.08

[[record]]
polymer_sequence = "ACTAGGACTTGGGTTCTAACCTGTTGCGG (site ACTAGGACTTC)"
observed = 0.302

[[record]]
polymer_sequence = "CAGGGTTCTTGGGTTCTAACCTGTTGCCT (site CCGGGTTCTAG)"
observed = 0.0396


---

- protocol.notes: recombinant barcode read abundance after kanamycin selection (control-corrected) (log10(CPM+1)); higher = more efficient recombination; sequences stand for … in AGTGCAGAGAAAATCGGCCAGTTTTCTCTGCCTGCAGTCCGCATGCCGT…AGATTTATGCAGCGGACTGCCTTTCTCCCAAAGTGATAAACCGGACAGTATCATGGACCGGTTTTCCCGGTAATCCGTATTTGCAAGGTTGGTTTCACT; site = the 11-nt target
property: recombinant barcode read abundance (log10)

[[record]]
polymer_sequence = "ACCTGACCTTGGGTTCTAACCTGTTGCCT (site ACCTGCCCTAG)"
observed = 0.0303

[[record]]
polymer_sequence = "AAGGGCGCTTGGGTTCTAACCTGTTGCCT (site AAGGTCGCTAG)"
observed = 0.261

[[record]]
polymer_sequence = "ATATGGGCTTGGGTTCTAACCTGTTGCCG (site ATATGTGCTCG)"
observed = 0.1

[[record]]
polymer_sequence = "CACGCGTCTTGGGTTCTAACCTGTTGCTG (site CACGCGTCTCA)"
observed = 0.746

[[record]]
polymer_sequence = "CCGTAAGCTTGGGTTCTAACCTGTTGCCT (site CCGTAAACTAG)"
observed = 0.139

[[record]]
polymer_sequence = "TAGGTTCCTTGGGTTCTAACCTGTTGCAT (site TAGGTCCCTAT)"
observed = 0.335

[[record]]
polymer_sequence = "TGTCTCCCTTGGGTTCTAACCTGTTGCTT (site TGTCTCCCTAA)"
observed = 0.777

[[record]]
polymer_sequence = "AAGGGCCCTTGGGTTCTAACCTGTTGCCT (site AAGGGCCCTAG)"
observed = 2.1

[[record]]
polymer_sequence = "GAGCGCTCTTGGGTTCTAACCTGTTGCTT (site GAGCGCTCTCA)"
observed = 0.0723

[[record]]
polymer_sequence = "GCTTCCACTTGGGTTCTAACCTGTTGCCT (site TCTTCCACTAG)"
observed = 0.196


---

- protocol.notes: recombinant barcode read abundance after kanamycin selection (control-corrected) (log10(CPM+1)); higher = more efficient recombination; sequences stand for … in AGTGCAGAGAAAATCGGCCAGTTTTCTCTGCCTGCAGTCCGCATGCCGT…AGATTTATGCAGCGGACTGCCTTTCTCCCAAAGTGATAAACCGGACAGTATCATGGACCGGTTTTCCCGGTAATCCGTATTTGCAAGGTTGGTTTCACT; site = the 11-nt target
property: recombinant barcode read abundance (log10)

[[record]]
polymer_sequence = "CCAGTGACTTGGGTTCTAACCTGTTGCCT (site CCAGTCACTAG)"
observed = 0.299

[[record]]
polymer_sequence = "GAGTTGCCTTGGGTTCTAACCTGTTGCCT (site GTGTTGCCTAG)"
observed = 1.59

[[record]]
polymer_sequence = "TGGTGTCCTTGGGTTCTAACCTGTTGCCT (site TGGCGTCCTAG)"
observed = 0.279

[[record]]
polymer_sequence = "GGTCCTCCTTGGGTTCTAACCTGTTGCGA (site GGTCCTCCTTC)"
observed = 0.847

[[record]]
polymer_sequence = "CTTCGAGCTTGGGTTCTAACCTGTTGCAG (site CTTCGAGCTCC)"
observed = 0.288

